B1: CPEB3 Ribozyme (parent)
chain: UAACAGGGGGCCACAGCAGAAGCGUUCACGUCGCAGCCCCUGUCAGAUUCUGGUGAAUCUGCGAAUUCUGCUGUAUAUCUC

variants of: B1; test: self-cleavage, relative activity (ratio to wild type); higher = more cleavage; in vitro, sequencing
Hi all, reminder that labels come from self-cleavage, split as lower bin (below 0.3), middle bin (0.3 to below 0.5), upper bin (0.5 or more)

1) U49G U72C; upper bin
2) G61A U80C; upper bin
3) G7U U80C; lower bin
4) C12U U69G; upper bin
5) G8U A20G; lower bin
6) A20G U80C; upper bin
7) G19U A35U; lower bin
8) U41C G73C; upper bin
9) C32U G61C; lower bin
10) G7U U67C; lower bin
11) C27U; lower bin
12) A3G C37U; upper bin
13) A21G A75G; upper bin
14) U49C A77U; middle bin
15) U1A A20G; upper bin
16) U49G; upper bin
17) A5U U74C; upper bin
18) U67C G70C; middle bin
19) A20G U67A; upper bin
20) G9A U41C; middle bin
21) U25A U67C; lower bin
22) A35G G53U; upper bin
23) C34A U54A; lower bin
24) C39G C62U; lower bin
25) U48A A56U; middle bin
26) A45U A47U; lower bin
27) A28C U49C; lower bin
28) U74G; upper bin
29) C23U U54A; middle bin
30) U26G A45G; lower bin
31) C44A U80C; middle bin
32) A21G U80C; upper bin
33) A2U U58A; middle bin
34) A45U U60G; upper bin
35) A13U G16U; middle bin
36) G19A G36C; lower bin
37) U48A U66C; lower bin
38) C44U U78G; lower bin
39) U49C U54C; middle bin
40) G52U U66C; upper bin
41) A13G U66C; middle bin
42) A28G A56U; middle bin
43) A3G G6A; upper bin
44) G6A C12A; middle bin
45) A21U U60C; lower bin
46) C44G U48C; lower bin
